Subject Of Test: Rhesus PDE2A3 (Macaca mulatta)
Sequence (B3VTJ2 1-941): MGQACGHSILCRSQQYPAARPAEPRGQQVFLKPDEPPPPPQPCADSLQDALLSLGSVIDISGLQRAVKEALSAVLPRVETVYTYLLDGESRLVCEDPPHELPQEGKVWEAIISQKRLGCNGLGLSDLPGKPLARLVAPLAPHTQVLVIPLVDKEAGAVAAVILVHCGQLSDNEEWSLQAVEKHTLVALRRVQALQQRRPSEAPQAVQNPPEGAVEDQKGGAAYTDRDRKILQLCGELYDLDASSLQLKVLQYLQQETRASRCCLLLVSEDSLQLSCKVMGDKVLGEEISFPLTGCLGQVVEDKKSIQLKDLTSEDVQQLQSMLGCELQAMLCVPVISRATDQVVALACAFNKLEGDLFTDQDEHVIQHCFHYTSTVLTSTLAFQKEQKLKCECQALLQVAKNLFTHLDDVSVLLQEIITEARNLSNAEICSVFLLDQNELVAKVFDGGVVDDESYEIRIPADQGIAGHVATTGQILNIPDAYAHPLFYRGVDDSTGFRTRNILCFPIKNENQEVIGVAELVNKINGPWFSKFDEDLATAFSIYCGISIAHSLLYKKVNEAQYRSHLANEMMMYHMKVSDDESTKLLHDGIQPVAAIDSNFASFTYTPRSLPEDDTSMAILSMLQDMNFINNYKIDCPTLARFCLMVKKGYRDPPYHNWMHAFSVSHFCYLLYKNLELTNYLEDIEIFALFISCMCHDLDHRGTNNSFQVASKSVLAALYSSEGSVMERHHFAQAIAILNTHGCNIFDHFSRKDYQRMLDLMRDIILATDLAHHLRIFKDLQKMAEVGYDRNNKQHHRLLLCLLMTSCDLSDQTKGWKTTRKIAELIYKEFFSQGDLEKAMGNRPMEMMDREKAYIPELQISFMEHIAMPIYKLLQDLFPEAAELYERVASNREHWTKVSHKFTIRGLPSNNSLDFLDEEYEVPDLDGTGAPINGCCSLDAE
Assay Text: PDE2 fluorescence polarization (IMAP FP) inhibition assay, rhesus enzyme
Assay type: biochemical, rhesus macaque
Condition Notes: Rhesus PDE2, Lab A; read-out: Rhesus PDE2 Ki (nM) - Lab A
Test Readout: log10 Ki (log10 of the value in nM)
Friendly reminder: values = log10 of Ki, unit nM.

* O=C(NCc1c(Cl)cc(C(F)(F)F)cc1Cl)c1cc(=O)[nH]c(C2CC2)n1 | 3.49
* COc1ccc2cc(C(C)NC(=O)c3cc(=O)[nH]c(C4CC4)n3)ccc2c1 (centres unmarked) | 2.18

Kindly note the recorded log10 Ki for O=C(NC1(c2ccc(C(F)(F)F)cc2)CCCC1)c1cc(=O)[nH]c(-c2ncccn2)n1 , which is 2.52

Kindly note the recorded log10 Ki for O=C(NC(c1ccccc1)c1ccc(C(F)(F)F)cc1)c1cc(=O)[nH]c(-c2ncccn2)n1 (centres unmarked) , which is 3.03

Kindly note the recorded log10 Ki for Cc1nc(C(=O)NCc2ccc(C(F)(F)F)cc2Cl)cc(=O)[nH]1 , which is 3.56

Kindly note the recorded log10 Ki for Cc1nc(C(=O)NC(CO)c2ccc(C(F)(F)F)cc2)cc(=O)[nH]1 (single isomer, unassigned) [Example 311] , which is 3.96

Kindly note the recorded log10 Ki for C[C@@H](NC(=O)c1cc(=O)[nH]c(-c2ncccn2)n1)c1ccc(OC(F)(F)F)cc1F , which is 1.45

Kindly note the recorded log10 Ki for O=C(NC(CO)c1ccc(C(F)(F)F)cc1)c1cc(=O)[nH]c(C2CC2)n1 (centres unmarked) , which is 1.84
